protocolDetails: Thermodynamic solubility assay
Assay type: physicochemical
condition: thermodynamic from solid; FeSSIF, pH 5.8, room temperature overnight; read-out: Solubility FeSSIF (pH 5.8)
propertyLabel: solubility (mg/mL)
API: value field is a number in mg/mL; no unit string.

Q. Could you tell me which solubility is on file for O=C(COCCc1cnn[nH]1)N1Cc2cnc(NC3Cc4ccccc4C3)nc2C1 [Control compound, reference compound] ?
A. 18.3

====

protocolDetails: In vivo pharmacokinetic assay in rats
condition: male, SD, rat, in vivo, oral intragastric administration 10 mg/kg
propertyLabel: Tmax (min)
API: value field is a number in min; no unit string.

Q. Could you tell me which Tmax is on file for O=C(COCCc1cnn[nH]1)N1Cc2cnc(NC3Cc4ccccc4C3)nc2C1 [Control compound, reference compound] ?
A. 25.2

====

protocolDetails: Solid stability, 1 week
Assay type: physicochemical
condition: 40° C./75% RH, HPLC
Structures can show the parent of a compound that is named as a salt.
Exercise: for every item that follows, state its recorded Purity (area %).
Give the value; after it, write the unit.

Q. Could you tell me which Purity (area %) is on file for C[C@H](Cc1cnn[nH]1)OCC(=O)N1Cc2cnc(NC3Cc4ccccc4C3)nc2C1 [Free base crystal form A] ?
A. 98.60 area %

Q. Could you tell me which Purity (area %) is on file for C[C@H](Cc1cnn[nH]1)OCC(=O)N1Cc2cnc(NC3Cc4ccccc4C3)nc2C1 [Crystal form A of fumarate] ?
A. 99.33 area %

Q. Could you tell me which Purity (area %) is on file for C[C@H](Cc1cnn[nH]1)OCC(=O)N1Cc2cnc(NC3Cc4ccccc4C3)nc2C1 [Crystal form A of benzenesulfonate] ?
A. 99.20 area %

Q. Could you tell me which Purity (area %) is on file for C[C@H](Cc1cnn[nH]1)OCC(=O)N1Cc2cnc(NC3Cc4ccccc4C3)nc2C1 [Crystal form A of hydrochloride] ?
A. 77.67 area %

Reference source: patent US20230312582A1
